test system: cmyc (DNA, G4) GGGGAGGGTGGGGAGGGTGGGGAAGGTGGGG; experiment: fluorescence titration, Equispec fit; settings: 185 mM K+, 185 mM Na+ (as KCl, NaCl); sodium phosphate, 1 mM EDTA, pH 7, 25 °C; excitation 252 nm; 0.2 μM compound
Could you please report measured log K for the items listed next?
Would you mind answering with just the numeric figure?

Data request: Consider the molecule CC(=O)NCCN(CC(=O)NCCN(CC(=O)NCCCCCCO)C(=O)CNC(=O)c1c2ccccc2nc2ccccc12)C(=O)CNC(=O)c1c2ccccc2nc2ccccc12 . State its measured log K.
Data returned: 4.9

Data request: Note log K for the molecule shown: CC(=O)NCCN(CC(=O)NCCN(CC(=O)NCCN(CC(=O)NCCCCCCOC(=O)CCC(=O)N(C)CC(N)=O)C(=O)CNC(=O)c1c2ccccc2nc2ccccc12)C(=O)CNC(=O)c1c2ccccc2nc2ccccc12)C(=O)CNC(=O)c1c2ccccc2nc2ccccc12
Data returned: 4.8

Data request: State its log K: CC(=O)NCCN(CC(=O)NCCN(CC(=O)NCCN(CC(=O)NCCCCCCO)C(=O)CNC(=O)c1c2ccccc2nc2ccccc12)C(=O)CNC(=O)c1c2ccccc2nc2ccccc12)C(=O)CNC(=O)c1c2ccccc2nc2ccccc12
Data returned: 5.3

Data request: Report log K, nothing else, for this molecule: CC(=O)NCCN(CC(=O)NCCN(CC(=O)NCCCCCCOC(=O)CCC(=O)N(C)CC(N)=O)C(=O)CNC(=O)c1c2ccccc2nc2ccccc12)C(=O)CNC(=O)c1c2ccccc2nc2ccccc12
Data returned: 5.5
